tested on: Mycobacterium tuberculosis Erdman (autoluminescent); assay: AUC25, normalised area under dose response up to IC25 (three-drug combination) (fraction (0-1)); higher = more potent at low dose; details: in vitro model: cholesterol 0.05 mM; time point: constant (~7 days, model-specific)
I'd be grateful if you could share measured AUC25 for these entries.

Enter measured AUC25, system Mycobacterium tuberculosis Erdman (autoluminescent), for the compound shown: CC[C@@H](CO)NCCN[C@@H](CC)CO [ethambutol] + CC(=O)NC[C@H]1CN(c2ccc(N3CCOCC3)c(F)c2)C(=O)O1 [linezolid] + O=[N+]([O-])c1cn2c(n1)OC[C@@H](OCc1ccc(OC(F)(F)F)cc1)C2 [pretomanid]
0.12

Fill: AUC25 (Mycobacterium tuberculosis Erdman (autoluminescent)) for this compound COc1nc2ccc(Br)cc2cc1[C@@H](c1ccccc1)[C@@](O)(CCN(C)C)c1cccc2ccccc12 [bedaquiline] + CC(C)/N=c1\cc2n(-c3ccc(Cl)cc3)c3ccccc3nc-2cc1Nc1ccc(Cl)cc1 [clofazimine] + CO[C@H]1/C=C/O[C@@]2(C)Oc3c(C)c(O)c4c(O)c(c(/C=N/N5CCN(C)CC5)c(O)c4c3C2=O)NC(=O)/C(C)=C\C=C\[C@H](C)[C@H](O)[C@@H](C)[C@@H](O)[C@@H](C)[C@H](OC(C)=O)[C@@H]1C [rifampicin]
0.0702

Provide Mycobacterium tuberculosis Erdman (autoluminescent) AUC25 reading for CC[C@@H](CO)NCCN[C@@H](CC)CO [ethambutol] + COc1c(N2C[C@@H]3CCCN[C@@H]3C2)c(F)cc2c(=O)c(C(=O)O)cn(C3CC3)c12 [moxifloxacin] + CO[C@H]1/C=C/O[C@@]2(C)Oc3c(C)c(O)c4c(O)c(c(/C=N/N5CCN(C)CC5)c(O)c4c3C2=O)NC(=O)/C(C)=C\C=C\[C@H](C)[C@H](O)[C@@H](C)[C@@H](O)[C@@H](C)[C@H](OC(C)=O)[C@@H]1C [rifampicin] .
0.104

Param request: AUC25 | system Mycobacterium tuberculosis Erdman (autoluminescent) | item COc1nc2ccc(Br)cc2cc1[C@@H](c1ccccc1)[C@@](O)(CCN(C)C)c1cccc2ccccc12 [bedaquiline] + NNC(=O)c1ccncc1 [isoniazid] + CC(=O)NC[C@H]1CN(c2ccc(N3CCOCC3)c(F)c2)C(=O)O1 [linezolid]
0.139

Look up and report measured AUC25 (Mycobacterium tuberculosis Erdman (autoluminescent)) for the following compound: CC(C)/N=c1\cc2n(-c3ccc(Cl)cc3)c3ccccc3nc-2cc1Nc1ccc(Cl)cc1 [clofazimine] + O=[N+]([O-])c1cn2c(n1)OC[C@@H](OCc1ccc(OC(F)(F)F)cc1)C2 [pretomanid] + NC(=O)c1cnccn1 [pyrazinamide]
0.136

// output AUC25; input CC(C)/N=c1\cc2n(-c3ccc(Cl)cc3)c3ccccc3nc-2cc1Nc1ccc(Cl)cc1 [clofazimine] + COc1c(N2C[C@@H]3CCCN[C@@H]3C2)c(F)cc2c(=O)c(C(=O)O)cn(C3CC3)c12 [moxifloxacin] + CO[C@H]1/C=C/O[C@@]2(C)Oc3c(C)c(O)c4c(O)c(c(/C=N/N5CCN(C)CC5)c(O)c4c3C2=O)NC(=O)/C(C)=C\C=C\[C@H](C)[C@H](O)[C@@H](C)[C@@H](O)[C@@H](C)[C@H](OC(C)=O)[C@@H]1C [rifampicin] ; system Mycobacterium tuberculosis Erdman (autoluminescent)
0.111
